Test: Volume of distribution at steady state in human after iv administration
Format: ADME, organism-based
Details: in vivo, read-out: Vdss
Reported endpoint: log10 of Vd (log10 of the value in L/kg)
Log scale reminder: Vd in L/kg, then log10 taken.

Completed entries (count: 2):
| Molecule | log10 of Vd |
| --- | --- |
| Cc1cc(=O)n(-c2ccccc2)n1C [ANTIPYRINE] | -0.06 |
| c1ccc(C2(N3CCCCC3)CCCCC2)cc1 | 0.79 |

Next, consider the following molecule.
[Q] // lookup log10 of Vd for Cc1cccc(C)c1NC(=O)NCCCNC(C)C
[A] 0.15

###

Parameter log10 Vd: see the listing below.
Assay: Volume of distribution at steady state in dog after iv administration
Format: ADME, organism-based, Canis lupus familiaris
Details: in vivo, read-out: Vdss
Log scale reminder: Vd in L/kg, then log10 taken.

| Compound | Reported endpoint | Test result |
| --- | --- | --- |
| CC1(C)O[C@@H]2C[C@H]3[C@@H]4C[C@H](F)C5=CC(=O)C=C[C@]5(C)[C@H]4[C@@H](O)C[C@]3(C)[C@]2(C(=O)CO)O1 [FLUNISOLIDE] | log10 Vd | 0.57 |
| CO/N=C(\C(=O)N[C@@H]1C(=O)N2C(C(=O)O)=CCS[C@H]12)c1csc(N)n1 | log10 Vd | -1.00 |
| C#C[C@]1(O)CC[C@H]2[C@@H]3CCc4cc(O)ccc4[C@H]3CC[C@@]21C | log10 Vd | 1.23 |
| CC(C)N(CCC(C(N)=O)(c1ccccc1)c1ccccn1)C(C)C (stereo not drawn) [DISOPYRAMIDE] | log10 Vd | 0.36 |
| COC(=O)C1=C(C)NC(C)=C(C(=O)OCCN(C)Cc2ccccc2)C1c1cccc([N+](=O)[O-])c1 (stereo not drawn) | log10 Vd | 0.11 |
| NCC1(CC(=O)O)CCCCC1 | log10 Vd | -0.80 |

[Q] // lookup log10 Vd for CN(C)C(=O)CCSC(SCCC(=O)O)c1cccc(/C=C/c2ccc3ccc(Cl)cc3n2)c1 (stereo not drawn)
[A] -0.64

[Q] // lookup log10 Vd for CC1=NC(=O)C(CCN(C(C)C)C(C)C)(c2ccccc2)C2CCCCN12 (stereo not drawn) [ACTISOMIDE]
[A] 0.04

[Q] // lookup log10 Vd for CN1C(=O)OC(C)(C)C1=O
[A] -0.20

[Q] // lookup log10 Vd for O=P1(N(CCCl)CCCl)NCCCO1 (stereo not drawn) [CYCLOPHOSPHAMIDE ANHYDROUS]
[A] -0.15

[Q] // lookup log10 Vd for C#C[C@]1(O)CC[C@H]2[C@@H]3CCc4cc(O)ccc4[C@H]3[C@@H](OC)C[C@@]21C
[A] -0.20

[Q] // lookup log10 Vd for c1ccc(C2(N3CCCCC3)CCCCC2)cc1
[A] 1.23

[Q] // lookup log10 Vd for Cn1c(=O)c2c(ncn2C)n(C)c1=O
[A] -0.12

[Q] // lookup log10 Vd for CO[C@@]1(NC(=O)C(C(=O)[O-])c2ccc(O)cc2)C(=O)N2C(C(=O)[O-])=C(CSc3nnnn3C)CO[C@@H]21.[Na+].[Na+] (stereo partly drawn) [MOXALACTAM DISODIUM]
[A] -0.70

[Q] // lookup log10 Vd for N=C(N)c1ccc(C(=O)N[C@@H](Cc2ccc(O)cc2)C(=O)N2CCC(OCC(=O)O)CC2)cc1
[A] -0.12

[Q] // lookup log10 Vd for C#CCCCC(=O)c1cc(C(C)(C)C)c(O)c(C(C)(C)C)c1
[A] 1.91

[Q] // lookup log10 Vd for O=C(c1ccccc1)c1ccc2n1CCC2C(=O)O (stereo not drawn)
[A] -0.48

###

Experiment: Volume of distribution at steady state in dog after iv administration
Format: ADME, organism-based, Canis lupus familiaris
Conditions: in vivo, read-out: Vdss
Parameter Vd: see the listing below.
Answer with the figure and its unit, nothing else.

Completed entries (count: 4):
| Compound | Vd |
| --- | --- |
| CO/N=C(\C(=O)N[C@@H]1C(=O)N2C(C(=O)[O-])=C(C[n+]3ccn4ncccc43)CS[C@H]12)c1nsc(N)n1 | 0.21 L/kg |
| O=[N+]([O-])O[C@@H]1CO[C@H]2[C@@H]1OC[C@@H]2O [ISOSORBIDE MONONITRATE] | 0.8 L/kg |
| CCCCCNC(=O)c1coc([C@H]2[C@@H](Cc3ccccc3CCC(=O)O)[C@@H]3CC[C@H]2O3)n1 | 11 L/kg |
| CC(C)NCC(O)COc1cccc2ccccc12 (stereo not given) | 1.7 L/kg |

Next, consider the following compound.
[Q] // lookup Vd for CC#CCC(C)[C@H](O)/C=C/[C@@H]1[C@H]2C/C(=C/CCCC(=O)O)C[C@H]2C[C@H]1O (stereo not given in full)
[A] 0.9 L/kg

###

Parameter log10 of Vd: see the listing below.
Experiment: Volume of distribution at steady state in monkey after iv administration
Type: ADME, organism-based
Conditions: macaca, in vivo, read-out: Vdss
Log scale reminder: Vd in L/kg, then log10 taken.

| Molecule | log10 of Vd |
| --- | --- |
| CCC1(C)CC(=O)NC1=O (stereo not drawn) [ETHOSUXIMIDE] | -0.09 |

[Q] // lookup log10 of Vd for C[C@]12C=CC(=O)C=C1CC[C@@H]1[C@@H]2C(=O)C[C@@]2(C)[C@H]1CC[C@]2(O)C(=O)CO [PREDNISONE]
[A] 0.20

[Q] // lookup log10 of Vd for CC(C)N(CCC(C(N)=O)(c1ccccc1)c1ccccn1)C(C)C (stereo not drawn) [DISOPYRAMIDE]
[A] 0.30

[Q] // lookup log10 of Vd for COc1cccc2c1C(=O)c1c(O)c3c(c(O)c1C2=O)C[C@@](O)(C(=O)CO)C[C@@H]3O[C@H]1C[C@H](N)[C@H](O)[C@H](C)O1 [DOXORUBICIN]
[A] 1.38

[Q] // lookup log10 of Vd for O=C1CN=C(c2ccccc2Cl)c2cc([N+](=O)[O-])ccc2N1 [CLONAZEPAM]
[A] 0.83

[Q] // lookup log10 of Vd for NC1(C(=O)O)CC1 [1-Aminocyclopropane carboxylic acid]
[A] -0.14

[Q] // lookup log10 of Vd for CC1=NC(=O)C(CCN(C(C)C)C(C)C)(c2ccccc2)C2CCCCN12 (stereo not drawn) [ACTISOMIDE]
[A] 0.20

[Q] // lookup log10 of Vd for O=c1[nH]cnc2c1ncn2[C@H]1CC[C@@H](CO)O1 [DIDANOSINE]
[A] -0.04

###

Parameter clearance: see the listing below.
Test: Clearance in human after iv administration
Type: ADME, organism-based
Conditions: in vivo
State the answer as a number, implicitly in mL/min/kg.

| Molecule | Reported endpoint | Value unit | Test result |
| --- | --- | --- | --- |
| CO/N=C(\C(=O)N[C@@H]1C(=O)N2C(C(=O)O)=CCS[C@H]12)c1csc(N)n1 [CEFTIZOXIME] | clearance | mL/min/kg | 1.8 |

[Q] // lookup clearance for O=C1CN=C(c2ccccc2Cl)c2cc([N+](=O)[O-])ccc2N1 [CLONAZEPAM]
[A] 1.6

[Q] // lookup clearance for COc1ccc2c(c1)c(CC(=O)O)c(C)n2C(=O)c1ccc(Cl)cc1 [INDOMETHACIN]
[A] 2

[Q] // lookup clearance for Cn1c(=O)c2c(ncn2C)n(C)c1=O [CAFFEINE]
[A] 2

[Q] // lookup clearance for CCCCCNC(=O)c1coc([C@H]2[C@@H](Cc3ccccc3CCC(=O)O)[C@@H]3CC[C@H]2O3)n1 [IFETROBAN]
[A] 6.4

###

Parameter clearance: see the listing below.
Assay: Clearance in dog after iv administration
Type: ADME, organism-based, Canis lupus familiaris
Conditions: in vivo
State the answer as a number, implicitly in mL/min/kg.

Completed entries (count: 3):
| Compound | clearance / mL/min/kg |
| --- | --- |
| CC#CCC(C)[C@H](O)/C=C/[C@@H]1[C@H]2C/C(=C/CCCC(=O)O)C[C@H]2C[C@H]1O (some centres undefined) | 67 |
| Cc1cccc(C)c1NC(=O)NCCCNC(C)C | 13 |
| O=c1[nH]cnc2c1ncn2[C@H]1CC[C@@H](CO)O1 | 23 |

[Q] // lookup clearance for O=[N+]([O-])O[C@@H]1CO[C@H]2[C@@H]1OC[C@@H]2O [ISOSORBIDE MONONITRATE]
[A] 6.9

###

Experiment: Clearance in rat after iv administration
Type: ADME, organism-based
Conditions: in vivo
Parameter clearance: see the listing below.
State the answer as a number, implicitly in mL/min/kg.

Completed entries (count: 2):
| Compound | clearance (mL/min/kg) |
| --- | --- |
| Cc1c(C)c2c(c(C)c1O)CCC(C)(COc1ccc(CC3SC(=O)NC3=O)cc1)O2 (stereo not drawn) | 22 |
| CCCC(CCC)C(=O)O | 4.2 |

Next, consider the following compound.
[Q] // lookup clearance for O=[N+]([O-])O[C@@H]1CO[C@H]2[C@@H]1OC[C@@H]2O [ISOSORBIDE MONONITRATE]
[A] 2.5

These data points were gathered from ChEMBL document CHEMBL1614629.
